target: BCL6 (Homo sapiens, UniProt P41182); construct: endogenous in cells; host or cells: T47D breast cancer epithelial cells; test: Immunofluorescence protocol for high content imaging of BCL6 (degradation) in T47D cells, 3 days compound treatment; assay type: cell-based; conditions: T47D, read-out: Mean Dmax (%)** category
Give Dmax for every item shown.

q: Form field - read-out: Dmax; system: BCL6 (Homo sapiens, UniProt P41182); submitted item: CNC(=O)COc1cc2cc(Nc3nc(N4CCC(OC5CCC6(CC5)CN(c5c(F)cc7c(c5F)CN(C5CCC(=O)NC5=O)C7=O)C6)CC4)ncc3Cl)ccc2n(C(C)C)c1=O (centres unmarked) [Compound 324]
a: 50 to 70%

q: What would you report for CNC(=O)COc1cc2cc(Nc3nc(N4CCC(O[C@H]5C[C@H](N6CC[C@H](c7ccc8c(c7F)CN(C7CCC(=O)NC7=O)C8=O)[C@H](O)C6)C5)CC4)ncc3Cl)ccc2n(C(C)C)c1=O (some centres unmarked) [Compound 282] ?
a: 50 to 70%

q: What would you report for CNC(=O)COc1cc2cc(Nc3nc(N4CCC(N5CCC56CN(C5CCN(c7ccc8c(c7)CN(C7CCC(=O)NC7=O)C8=O)C5)C6)CC4)ncc3Cl)ccc2n(C(C)C)c1=O (centres unmarked) [Compound 234] ?
a: 50 to 70%

q: What would you report for CNC(=O)COc1cc2cc(Nc3nc(N4CCC(CN5CCC6(CC5)CCN6c5cccc6c5CN(C5CCC(=O)NC5=O)C6=O)CC4)ncc3Cl)ccc2n(C(C)C)c1=O (centres unmarked) [Compound 334] ?
a: 50 to 70%

q: What would you report for CNC(=O)COc1cc2cc(Nc3nc(N4CCN(CC5CCC6(CC5)CN(c5ccc7c(c5)CN(C5CCC(=O)NC5=O)C7=O)C6)CC4)ncc3Cl)ccc2n(C(C)C)c1=O (centres unmarked) [Compound 305] ?
a: 50 to 70%

---

molecular target: BCL6 (Homo sapiens); construct: endogenous in cells; host or cells: T47D breast cancer epithelial cells; test: Immunofluorescence protocol for high content imaging of BCL6 (degradation) in T47D cells, 3 days compound treatment; assay type: cell-based; conditions: T47D, read-out: Mean Dmax (%)** category
Property measured: Dmax

q: Entry CNC(=O)COc1cc2cc(Nc3nc(N4CCC(O[C@H]5C[C@H](N6CC7CCC(C6)N7c6ccc7c(c6)CN(C6CCC(=O)NC6=O)C7=O)C5)CC4)ncc3Cl)ccc2n(C(C)C)c1=O (some centres unmarked) : reported Dmax = ?
a: < 50%

q: What would you report for CNC(=O)COc1cc2cc(Nc3nc(N4CCC(O[C@H]5C[C@H](N6CCN(c7c(OC)cc8c(c7C)C(=O)N(C7CCC(=O)NC7=O)C8=O)CC6)C5)CC4)ncc3Cl)ccc2n(C(C)C)c1=O (some centres unmarked) ?
a: ≥ 70%

q: What would you report for CNC(=O)COc1cc2cc(Nc3nc(N4CCC(O[C@H]5C[C@H](N6CCC(c7ccc8c(c7)C(=O)N(C7CCC(=O)NC7=O)C8=O)C(C)(C)C6)C5)CC4)ncc3Cl)ccc2n(C(C)C)c1=O (some centres unmarked) ?
a: ≥ 70%

q: What would you report for CNC(=O)COc1cc2cc(Nc3nc(N4CCC(CN5CC(N6CCN(c7ccc8c(c7)CN(C7CCC(=O)NC7=O)C8=O)CC6)C5)CC4)ncc3Cl)ccc2n(C(C)C)c1=O (centres unmarked) ?
a: ≥ 70%

q: What would you report for `CNC(=O)COc1cc2c(F)c(Nc3nc(N4CCC(O[C@H]5C[C@H](N6CCC(c7ccc8c(c7F)CN([C@@H]7CCC(=O)NC7=O)C8=O)CC6)C5)CC4)ncc3Cl)ccc2n(C(C)C)c1=O` ?
a: ≥ 70%

---

Biological target: BCL6 (Homo sapiens)
Construct: endogenous in cells; host or cells: T47D breast cancer epithelial cells
Assay: Immunofluorescence protocol for high content imaging of BCL6 (degradation) in T47D cells, 3 days compound treatment
Format: cell-based
Conditions: T47D cells, 3 days compound treatment, read-out: Mean Dmax (%)** category
Method: Immunofluorescence Protocol for High Content Imaging of BCL6 T47D cells were seeded in 100 μl volume of RPMI1640-10% FBS in a 96-well black/clear bottom plates for adherent lines (Corning #3904). Day 1. T47D breast cancer epithelial cells were seeded at a density so that confluence is ˜70-90% at endpoint. Cells were seeded at 7K/0.1 ml/well the morning prior to the addition of exemplary bifunctional degradation compounds. Day 2. […] Plates were equilibrated to room temperature prior to reading. […]
Property measured: Dmax

q: Entry CNC(=O)COc1cc2cc(Nc3nc(N4CCC(CN5CCC6(CC5)CN(c5cc7c(cc5F)C(=O)N(C5CCC(=O)NC5=O)C7)C6)CC4)ncc3Cl)ccc2n(C(C)C)c1=O (centres unmarked) : reported Dmax = ?
a: 50 to 70%

q: What would you report for CNC(=O)COc1cc2cc(Nc3nc(N4CCC(F)(CN5CCC6(CC5)CCN(c5c(F)ccc7c5C(=O)N(C5CCC(=O)NC5=O)C7)CC6)CC4)ncc3Cl)ccc2n(C(C)C)c1=O (centres unmarked) ?
a: ≥ 70%

q: What would you report for CNC(=O)COc1cc2cc(Nc3nc(N4CCC(O[C@H]5C[C@H](N6CCC(c7c(F)cc8c(c7F)CN(C7CCC(=O)NC7=O)C8=O)CC6)C5)CC4)ncc3Cl)ccc2n(C(C)C)c1=O (some centres unmarked) ?
a: 50 to 70%

q: What would you report for CNC(=O)COc1cc2cc(Nc3nc(N4CCC(O[C@H]5C[C@H](N6CCC(c7cc8c(cc7OC)C(=O)N(C7CCC(=O)NC7=O)C8=O)CC6)C5)CC4)ncc3Cl)ccc2n(C(C)C)c1=O (some centres unmarked) ?
a: ≥ 70%

q: What would you report for CNC(=O)COc1cc2cc(Nc3nc(N4CCC5(CCN(CC6CCN(c7cccc8c7C(=O)N(C7CCC(=O)NC7=O)C8=O)CC6)C5)C4)ncc3Cl)ccc2n(C(C)C)c1=O (centres unmarked) ?
a: ≥ 70%

---

biological target: BCL6 (Homo sapiens); construct: endogenous in cells; host or cells: T47D breast cancer epithelial cells; assay: Immunofluorescence protocol for high content imaging of BCL6 (degradation) in T47D cells, 3 days compound treatment; type: cell-based; conditions: T47D cells, 3 days compound treatment, read-out: Mean Dmax (%)** category
Give Dmax for every item shown.

q: Form field - read-out: Dmax; system: BCL6 (Homo sapiens); submitted item: CNC(=O)COc1cc2cc(Nc3nc(N4CCN(CC5CCN(c6cc(OC)cc7c6CN(C6CCC(=O)NC6=O)C7=O)CC5)CC4)ncc3Cl)ccc2n(C(C)C)c1=O (centres unmarked)
a: 50 to 70%

q: What would you report for CNC(=O)COc1cc2cc(Nc3nc(N4CCC(OC5CCN(c6ccc7c(c6)CN(C6CCC(=O)NC6=O)C7=O)CC5)CC4)ncc3Cl)ccc2n(C(C)C)c1=O (centres unmarked) ?
a: 50 to 70%

q: What would you report for CNC(=O)COc1cc2cc(Nc3nc(N4CCC5(CC4)CC(C(=O)N4CCN(c6cccc7c6CN(C6CCC(=O)NC6=O)C7=O)CC4)C5)ncc3Cl)ccc2n(C(C)C)c1=O (centres unmarked) ?
a: 50 to 70%

q: What would you report for `CNC(=O)COc1cc2cc(Nc3nc(N4CCC(CN5CC[C@]6(CCN(c7ccc8c(c7)CN([C@H]7CCC(=O)NC7=O)C8=O)C6)C5)CC4)ncc3Cl)ccc2n(C(C)C)c1=O` ?
a: 50 to 70%

q: What would you report for CNC(=O)COc1cc2cc(Nc3nc(N4CCN(CC5CCN(c6cc7c(c(OC)c6)C(=O)N(C6CCC(=O)NC6=O)C7)CC5)CC4)ncc3Cl)ccc2n(C(C)C)c1=O (centres unmarked) ?
a: 50 to 70%

q: What would you report for CNC(=O)COc1cc2cc(Nc3nc(N4CCC(F)(CN5CCC6(CC5)CN(c5cccc7c5CN(C5CCC(=O)NC5=O)C7=O)C6)CC4)ncc3Cl)ccc2n(C(C)C)c1=O (centres unmarked) ?
a: ≥ 70%

q: What would you report for CNC(=O)COc1cc2cc(Nc3nc(N4CCC5(CC4)CC(C(=O)N4CCC(c6cccc7c6CN(C6CCC(=O)NC6=O)C7=O)CC4)C5)ncc3Cl)ccc2n(C(C)C)c1=O (centres unmarked) ?
a: 50 to 70%

q: What would you report for CNC(=O)COc1cc2cc(Nc3nc(N4CCC(CN5CCC6(CCN(c7c(F)ccc8c7C(=O)N(C7CCC(=O)NC7=O)C8=O)C6)C5)CC4)ncc3Cl)ccc2n(C(C)C)c1=O (centres unmarked) ?
a: 50 to 70%

q: What would you report for CNC(=O)COc1cc2cc(Nc3nc(N4CCN(C(C)(C)C5CCN(c6ccc7c(c6F)CN(C6CCC(=O)NC6=O)C7=O)CC5)CC4)ncc3Cl)ccc2n(C(C)C)c1=O (centres unmarked) ?
a: 50 to 70%

q: What would you report for CNC(=O)COc1cc2cc(Nc3nc(N4CCC(O[C@H]5C[C@H](N6CCC(c7ccc8c(c7C)CN(C7CCC(=O)NC7=O)C8=O)CC6)C5)CC4)ncc3Cl)ccc2n(C(C)C)c1=O (some centres unmarked) ?
a: ≥ 70%

q: What would you report for CNC(=O)COc1cc2cc(Nc3nc(N4CCC(CN5CCC6(CN(c7ccc8c(c7)CN(C7CCC(=O)NC7=O)C8=O)C6)C(F)(F)C5)CC4)ncc3Cl)ccc2n(C(C)C)c1=O (centres unmarked) ?
a: 50 to 70%

q: What would you report for CNC(=O)COc1cc2cc(Nc3nc(N4CCN(C[C@H]5C[C@H](N6CCC(c7ccc8c(c7)C(=O)N(C7CCC(=O)NC7=O)C8=O)CC6)C5)CC4)ncc3Cl)ccc2n(C(C)C)c1=O (some centres unmarked) ?
a: ≥ 70%

q: What would you report for CNC(=O)COc1cc2cc(Nc3nc(N4CCC(C(C)(C)N5CCC6(CC5)CN(c5cccc7c5CN(C5CCC(=O)NC5=O)C7=O)C6)CC4)ncc3Cl)ccc2n(C(C)C)c1=O (centres unmarked) ?
a: 50 to 70%

q: What would you report for CNC(=O)COc1cc2cc(Nc3nc(N4CCC(O[C@H]5C[C@H](N6CC[C@H](c7ccc8c(c7)CN(C7CCC(=O)NC7=O)C8=O)[C@H](F)C6)C5)CC4)ncc3Cl)ccc2n(C(C)C)c1=O (mixture of isomers) ?
a: 50 to 70%

q: What would you report for CNC(=O)COc1cc2cc(Nc3nc(N4CCC(CN5CCC6(CC5)CN(c5ccc7c(c5)C(=O)N(C5CCC(=O)NC5=O)C7=O)C6)CC4)ncc3Cl)ccc2n(CCOC)c1=O (centres unmarked) ?
a: 50 to 70%

q: What would you report for CNC(=O)COc1cc2cc(Nc3nc(N4CCC(OC5CCC6(CCN(c7ccc8c(c7)CN(C7CCC(=O)NC7=O)C8=O)C6)C5)CC4)ncc3Cl)ccc2n(C(C)C)c1=O (centres unmarked) ?
a: < 50%

q: What would you report for CNC(=O)COc1cc2cc(Nc3nc(N4CCC(O[C@H]5C[C@H](N6CCC(c7ccc8c(c7C)C(=O)N(C7CCC(=O)NC7=O)C8=O)CC6)C5)CC4)ncc3Cl)ccc2n(C(C)C)c1=O (some centres unmarked) ?
a: ≥ 70%

q: What would you report for CNC(=O)COc1cc2cc(Nc3nc(N4CC5C(CN6CCN(c7ccc8c(c7)C(=O)N(C7CCC(=O)NC7=O)C8=O)CC6)C5C4)ncc3Cl)ccc2n(C(C)C)c1=O (centres unmarked) ?
a: < 50%

q: What would you report for CNC(=O)COc1cc2cc(Nc3nc(N4CCC(O[C@H]5C[C@H](N6CCC(c7cc8c(c(OC)c7)C(=O)N(C7CCC(=O)NC7=O)C8)CC6)C5)CC4)ncc3Cl)ccc2n(C(C)C)c1=O (some centres unmarked) ?
a: 50 to 70%

q: What would you report for CNC(=O)COc1cc2cc(Nc3nc(N4CCC(F)(CN5CCC6(CC5)CCN(c5cccc7c5CN(C5CCC(=O)NC5=O)C7=O)CC6)CC4)ncc3Cl)ccc2n(C(C)C)c1=O (centres unmarked) ?
a: ≥ 70%
